test: Krafft Point (Water Solubility Test); settings: 0.1% dispersion in water by weight
In this section, each of the molecules is paired with its reported Krafft Point (0.1%).

Consider the worked cases shown below.
Molecule	Reported Value
CCCCCCCC(O)CCC(=O)NC[C@H](O)[C@@H](O)[C@H](O)[C@H](O)CO (stereo partly drawn) [Undecyl 4-Hydroxy D-Glucamide, undecyl-4-hydroxy D-glucamide]	37 °C
CCCCCCCCCCCCCCCCCC(=O)NC[C@H](O)[C@@H](O)[C@H](O)[C@H](O)CO [Octadecyl D-Glucamide]	> 100 °C
CCCCCCCCCCCCCCCC(=O)NC[C@H](O)[C@@H](O)[C@H](O)[C@H](O)CO [Hexadecyl D-Glucamide]	> 100 °C
CCCCCCCCCCCCCCNC(=O)[C@H](O)[C@@H](O)[C@H](O)[C@H](O)CO [Tetradecyl D-Gluconamide]	> 100 °C

Now look at this entry.
Krafft Point (0.1%) lookup needed for CCCCCCCCCCCCNC(=O)[C@H](O)[C@@H](O)[C@H](O)[C@H](O)CO [Dodecyl D-Gluconamide] , thanks.
> 100 °C
